Dear all, this message contains IC50 results, target or system E. coli WT RNAP (Escherichia coli).

>  <compound>
CO[C@H]1/C=C/O[C@@]2(C)Oc3c(C)c(O)c4c(=O)c(c5oc6cccc(OCCCCN7CCOCC7)c6nc-5c4c3C2=O)NC(=O)/C(C)=C\C=C\[C@H](C)[C@H](O)[C@@H](C)[C@@H](O)[C@@H](C)[C@H](OC(C)=O)[C@@H]1C

>  <IC50>
7 nM

$$$$
>  <compound>
CO[C@H]1/C=C/O[C@@]2(C)Oc3c(C)c(O)c4c(=O)c(c5oc6cc(N7CCN(CC(C)C)CC7)cc(OCCCCN7CCOCC7)c6nc-5c4c3C2=O)NC(=O)/C(C)=C\C=C\[C@H](C)[C@H](O)[C@@H](C)[C@@H](O)[C@@H](C)[C@H](OC(C)=O)[C@@H]1C

>  <IC50>
6 nM

$$$$
>  <compound>
CO[C@H]1/C=C/O[C@@]2(C)Oc3c(C)c(O)c4c(=O)c(c5oc6cccc(OCc7cccc(CN8CCN(C(C)=O)CC8)c7)c6nc-5c4c3C2=O)NC(=O)/C(C)=C\C=C\[C@H](C)[C@H](O)[C@@H](C)[C@@H](O)[C@@H](C)[C@H](OC(C)=O)[C@@H]1C [Compound 11c]

>  <IC50>
19 nM

$$$$
>  <compound>
CO[C@H]1/C=C/O[C@@]2(C)Oc3c(C)c(O)c4c(=O)c(c5oc6cc(N7CCN(CC(C)C)CC7)cc(OCCCCN7CCN(CCn8ccnc8)CC7)c6nc-5c4c3C2=O)NC(=O)/C(C)=C\C=C\[C@H](C)[C@H](O)[C@@H](C)[C@@H](O)[C@@H](C)[C@H](OC(C)=O)[C@@H]1C

>  <IC50>
6 nM

$$$$
>  <compound>
CO[C@H]1/C=C/O[C@@]2(C)Oc3c(C)c(O)c4c(=O)c(c5oc6cc(N7CCN(CC(C)C)CC7)cc(OCc7ccc(CN8CCOCC8)cc7)c6nc-5c4c3C2=O)NC(=O)/C(C)=C\C=C\[C@H](C)[C@H](O)[C@@H](C)[C@@H](O)[C@@H](C)[C@H](OC(C)=O)[C@@H]1C [Compound 17e]

>  <IC50>
14 nM

$$$$

The reported numbers originate from patent US20250188092A1.
